The values you see were collected from paper PMC8520056.

Test: In vivo pharmacokinetic study after oral administration
Parameters: species or system Sprague-Dawley rats
Details: male, Sprague-Dawley, rat, plasma, 40 mg/kg
PARAMETER: half-life (h)

C=C1CC[C@@H]2[C@](C)(CO)[C@H](O)CC[C@@]2(C)[C@@H]1C/C=C1/C(=O)OC[C@H]1O [AG, Andrographolide] ... 9.72

###

Test: In vivo pharmacokinetic study after oral administration
Set-up: species or system Sprague-Dawley rats
Conditions: male, Sprague-Dawley, rat, plasma, 40 mg/kg
PARAMETER: AUC(0-inf) (ng·h/mL)

C=C1CC[C@@H]2[C@](C)(CO)[C@H](O)CC[C@@]2(C)[C@@H]1C/C=C1/C(=O)OC[C@H]1O [AG, Andrographolide] ... 426
